tested on: CP286; experiment: qHTS profiling for inhibitors of Plasmodium falciparum proliferation (AID 504749); further: nearly all actives have a fitted effect of over 60% in size; details: P. falciparum in erythrocytes, SYBR Green DNA, 72 h; series mostly up to 28.7 µM
Results filed as inconclusive are left out. Active and inactive are the calls of the source. The call rests on the fitted dose curve; in most records, active means well fitted inhibition curve with a large enough effect; inconclusive means small, poorly fitted or top-dose-only effect; inactive means flat fitted curve, though single readings scatter.
Log the outcome using a class from TRUE (active), FALSE (inactive)

Here's what some known entries look like.
- COMPOUND: "O=c1ccc2ccccc2o1"
  TGT: "CP286"
  LABEL: "FALSE"
- COMPOUND: "CCn1cc(C(=O)O)c(=O)c2cnc(N3CCCC3)nc21"
  TGT: "CP286"
  LABEL: "FALSE"
- COMPOUND: "CC(O)C(=O)O (configuration not stated)"
  TGT: "CP286"
  LABEL: "FALSE"
- COMPOUND: "COC1=CC(=O)C[C@@H](C)[C@]12Oc1c(Cl)c(OC)cc(OC)c1C2=O"
  TGT: "CP286"
  LABEL: "FALSE"
- COMPOUND: "CCOC(=O)c1cccc(N)c1"
  TGT: "CP286"
  LABEL: "FALSE"

Fill in: this test's call for `O=C1OC(c2ccc(O)cc2)(c2ccc(O)cc2)c2ccccc21` is ___
FALSE

Could you check what this test reported for `CN(C)CCCOc1nn(Cc2ccccc2)c2ccccc12` ?
FALSE

Hi, sorry to bother you, what did the test record for CC1=C(C(=O)OC(C)C)C(c2cccc([N+](=O)[O-])c2)C(C(=O)OC2CN(C(c3ccccc3)c3ccccc3)C2)=C(N)N1 (configuration not stated) ?
TRUE

Which outcome did this test record for the compound `Cc1c(C(N)=O)cc([N+](=O)[O-])cc1[N+](=O)[O-]` ?
FALSE

# outcome recorded in this test, key = `Oc1c(Cl)cc(Cl)cc1Sc1cc(Cl)cc(Cl)c1O`
FALSE

Per the assay record, what outcome was assigned to `Cc1cc(N)c2cc(NC(=O)Nc3ccc4nc(C)cc(N)c4c3)ccc2n1` ?
TRUE

Just curious, what result did `N[C@H](Cc1c[nH]c2ccccc12)C(=O)O` get here?
FALSE

* * *

test: Primary qHTS for inhibitors of nuclear receptor binding SET domain protein 2 (NSD2) in an isogenic RCH-ACV NSD2 p.E1099K mutant (9B) (AID 1645876); conditions: RCH-ACV (leukaemia line) NSD2 E1099K (9B) viability, CellTiter-Glo, 72 h; series mostly up to 44.9 µM; further: nearly all actives have a fitted effect of over 70% in size
Results filed as inconclusive are left out. Active and inactive are the calls of the source. The call rests on the fitted dose curve; in most records, active means well fitted inhibition curve with a large enough effect; inconclusive means small, poorly fitted or top-dose-only effect; inactive means flat fitted curve, though single readings scatter.
Pick one and only one: active, inactive

Some solved entries appear below for comparison.
- COMPOUND: "CC(Cc1ccccc1)(NC(=O)CN)c1ccccc1 (stereo unspecified)"
  LABEL: "inactive"
- COMPOUND: "CC(C)(Oc1ccc(Cl)cc1)C(=O)O"
  LABEL: "inactive"
- COMPOUND: "COc1cc(C(=S)N2CCOCC2)cc(OC)c1OC"
  LABEL: "inactive"
- COMPOUND: "CC/C(=C(/CC)c1ccc(O)cc1)c1ccc(O)cc1"
  LABEL: "inactive"
- COMPOUND: "CCCCC(CC)CN=C(N)NC(N)=NCCCCCCN=C(N)NC(N)=NCC(CC)CCCC (stereo unspecified)"
  LABEL: "active"

Shift focus to the following entry.
Recorded test call requested for `OC[C@H]1O[C@H](O[C@]2(CCl)O[C@H](CCl)[C@@H](O)[C@@H]2O)[C@H](O)[C@@H](O)[C@H]1Cl`
inactive

Source: PubChem BioAssay (NCATS)
